Biological target: Corticotropin-releasing factor receptor 1 (Homo sapiens, UniProt P34998)
Sequence (P34998 whole entry): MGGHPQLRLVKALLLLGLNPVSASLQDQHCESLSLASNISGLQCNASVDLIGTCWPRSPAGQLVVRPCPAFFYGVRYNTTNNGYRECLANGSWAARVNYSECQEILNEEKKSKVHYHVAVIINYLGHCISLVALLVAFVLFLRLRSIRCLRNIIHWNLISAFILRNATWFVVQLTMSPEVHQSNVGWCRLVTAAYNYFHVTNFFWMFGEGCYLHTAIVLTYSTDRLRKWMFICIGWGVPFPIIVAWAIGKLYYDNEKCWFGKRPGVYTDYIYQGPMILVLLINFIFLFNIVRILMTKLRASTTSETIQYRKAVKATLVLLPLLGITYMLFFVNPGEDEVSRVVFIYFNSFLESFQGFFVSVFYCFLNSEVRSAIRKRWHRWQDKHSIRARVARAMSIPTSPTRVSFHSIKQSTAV
Assay: Antagonist activity at human CRF1 receptor expressed in HEK293 cells assessed as inhibition of CRF-stimulated intracellular cAMP accumulation after 30 mins by enzyme immunoassay
Assay type: functional, cell-based
Mark satisfied only for IC50 values smaller than 50 nM; exact matches and larger values are not satisfied.

[Q] Quick check: IC50 of `CCN(CC)c1ccc(C)c2nc(-c3c(OC)cc(COC)cc3OC)c(C)cc12` under 50 nM?
[A] satisfied

[Q] Given the entry `CCCN(CCC)c1ccc(CC)c2nc(-c3c(OC)cc(COC)cc3OC)c(C)cc12` , would its reported IC50 be below 50 nM?
[A] not satisfied

[Q] Report whether reported IC50 is lower than 50 nM (strictly) for `COCc1cc(OC)c(-c2nc3c(C)ccc(N(C)C)c3cc2C)c(OC)c1`
[A] not satisfied

[Q] Check if IC50 falls below 50 nM for `COCc1cc(OC)c(-c2nc3c(C)ccc(N(CC4CC4)CC4CC4)c3cc2C)c(OC)c1` .
[A] satisfied

[Q] Identify whether the compound `CCCN(CCC)c1cccc2nc(-c3c(OC)cc(COC)cc3OC)c(C)cc12` records IC50 below 50 nM.
[A] not satisfied

[Q] Criterion: IC50 strictly below 50 nM. Is it met by `CCN(CC)c1ccc(C)c2nc(-c3c(OC)cc(COC)cc3OC)ccc12` ?
[A] not satisfied
